Molecular target: EPHA6 (human) (UniProt Q9UF33)
Sequence (Q9UF33 whole entry, looked up): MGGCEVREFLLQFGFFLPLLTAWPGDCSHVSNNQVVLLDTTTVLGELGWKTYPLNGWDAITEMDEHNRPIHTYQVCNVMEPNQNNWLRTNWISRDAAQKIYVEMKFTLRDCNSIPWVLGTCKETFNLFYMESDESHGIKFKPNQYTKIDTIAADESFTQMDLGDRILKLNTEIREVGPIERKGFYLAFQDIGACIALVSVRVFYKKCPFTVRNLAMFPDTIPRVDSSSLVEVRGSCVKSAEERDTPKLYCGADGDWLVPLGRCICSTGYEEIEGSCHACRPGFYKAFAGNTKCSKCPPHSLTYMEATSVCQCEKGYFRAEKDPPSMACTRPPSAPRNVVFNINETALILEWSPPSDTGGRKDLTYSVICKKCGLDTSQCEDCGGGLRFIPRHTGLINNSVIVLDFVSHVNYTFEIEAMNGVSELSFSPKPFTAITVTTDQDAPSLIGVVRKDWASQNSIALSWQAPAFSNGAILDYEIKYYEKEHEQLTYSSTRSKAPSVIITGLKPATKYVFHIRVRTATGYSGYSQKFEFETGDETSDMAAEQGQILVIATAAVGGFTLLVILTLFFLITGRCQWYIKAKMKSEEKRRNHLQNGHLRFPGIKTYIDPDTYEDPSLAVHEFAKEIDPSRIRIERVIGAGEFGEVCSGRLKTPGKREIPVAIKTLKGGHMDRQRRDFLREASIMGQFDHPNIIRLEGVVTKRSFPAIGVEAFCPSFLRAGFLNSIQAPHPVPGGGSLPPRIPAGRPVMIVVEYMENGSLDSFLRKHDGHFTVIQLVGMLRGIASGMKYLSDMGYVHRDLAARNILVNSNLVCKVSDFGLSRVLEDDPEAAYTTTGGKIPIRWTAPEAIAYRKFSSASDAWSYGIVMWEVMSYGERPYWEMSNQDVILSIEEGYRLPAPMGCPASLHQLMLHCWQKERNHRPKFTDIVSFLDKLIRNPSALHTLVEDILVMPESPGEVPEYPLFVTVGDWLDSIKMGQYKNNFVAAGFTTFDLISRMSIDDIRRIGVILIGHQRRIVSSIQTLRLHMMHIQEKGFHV
Assay: radiometric filter-binding kinase assay, Kinase HotSpot
Settings: compound 0.5 µM; ATP 10 µM
OBSERVATION_TYPE: residual activity (%)
One number for each entry, in %.

# COMPOUND_STRING, OBSERVATION_TYPE, REPORTED_RESULT
rows = [
    ("COc1cc2ncc(-c3ccccc3)nc2cc1OC", "residual activity", 90.4),
    ("CN([C@@H](Cc1ccc(OS(=O)(=O)c2cccc3cnccc23)cc1)C(=O)N1CCN(c2ccccc2)CC1)S(=O)(=O)c1cccc2cnccc12", "residual activity", 94.9),
    ("O=C(CCCc1ccc(-c2ccccc2F)cc1)Nc1ccc(O)cc1", "residual activity", 89.6),
    ("COc1cc2ncnc(N3CCN(C(=O)Nc4ccc(Oc5ccccc5)cc4)CC3)c2cc1OC", "residual activity", 89.6),
    ("Nc1nccc(-c2c(-c3ccc(F)cc3)ncn2C2CCNCC2)n1", "residual activity", 78),
]

Batch: residual activity for all items listed.
1. O=C1Cc2c([nH]c3ccc(Br)cc23)-c2ccccc2N1
2. O=C1NC(=O)/C(=C\c2ccc3nccnc3c2)S1
3. CN(C)C[C@H]1CCn2c(c(C3=C(c4cn(C)c5ccccc45)C(=O)NC3=O)c3ccccc32)C1
4. Oc1ccc(Nc2nc(-c3ccc(Cl)cc3)cs2)cc1
5. Cn1nc2c3c(cccc31)C(=O)c1ccccc1-2

1. 93.7
2. 82.4
3. 100
4. 101
5. 87.6

---

Molecular target: UniProt P05771
Sequence (P05771 whole entry, looked up): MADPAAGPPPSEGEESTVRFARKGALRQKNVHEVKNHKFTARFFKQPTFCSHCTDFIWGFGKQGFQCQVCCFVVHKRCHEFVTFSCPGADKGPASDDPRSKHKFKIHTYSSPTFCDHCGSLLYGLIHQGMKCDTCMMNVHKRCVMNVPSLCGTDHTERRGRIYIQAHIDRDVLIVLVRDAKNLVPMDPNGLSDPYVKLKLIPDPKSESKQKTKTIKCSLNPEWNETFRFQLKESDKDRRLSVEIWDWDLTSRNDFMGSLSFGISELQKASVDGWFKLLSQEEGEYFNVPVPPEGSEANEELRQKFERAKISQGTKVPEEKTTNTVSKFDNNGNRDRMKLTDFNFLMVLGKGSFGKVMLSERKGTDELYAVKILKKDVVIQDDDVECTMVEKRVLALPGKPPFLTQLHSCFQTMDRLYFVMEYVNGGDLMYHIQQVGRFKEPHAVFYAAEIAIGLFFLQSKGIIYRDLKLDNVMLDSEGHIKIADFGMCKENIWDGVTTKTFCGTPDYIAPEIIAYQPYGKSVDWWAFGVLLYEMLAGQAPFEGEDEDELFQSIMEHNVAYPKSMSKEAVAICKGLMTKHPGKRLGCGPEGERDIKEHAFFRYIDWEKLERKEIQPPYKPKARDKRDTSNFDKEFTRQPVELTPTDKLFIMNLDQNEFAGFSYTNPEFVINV
Assay: radiometric filter-binding kinase assay, Kinase HotSpot
Conditions: compound 0.5 µM; ATP 10 µM
OBSERVATION_TYPE: residual activity (%)
Answers are plain numbers, in %.

A selection of reference data follows.
# COMPOUND, MEASUREMENT_UNITS, residual activity
measured = [
    ("COc1ccc(CNC(=O)Nc2ncc([N+](=O)[O-])s2)cc1", "%", 103),
    ("O=C1NC(=O)C(c2c[nH]c3ccccc23)=C1c1c[nH]c2ccccc12", "%", 42.9),
    ("O=C1Cc2c([nH]c3ccc(Br)cc23)-c2ccccc2N1", "%", 102),
    ("Cc1nc2cc3nc(-c4cccs4)cnc3cc2n1C", "%", 121),
    ("Nc1nccc(-c2c(-c3ccc(F)cc3)ncn2C2CCNCC2)n1", "%", 79.4),
    ("Oc1ccc(Nc2nc(-c3ccc(Cl)cc3)cs2)cc1", "%", 94.7),
]

Batch: residual activity for all items listed.
1. CC(C)[C@H](CO)Nc1nc(Nc2cc(N)cc(Cl)c2)c2ncn(C(C)C)c2n1
2. O=C(O)/C=C/c1cc(Br)c(Br)c(Br)c1Br

97.3
84.7

Batch: residual activity for all items listed.
1. Cn1cnc2cc3c(Nc4cccc(Br)c4)ncnc3cc21
2. O=C1NC(=O)/C(=C\c2ccc3nccnc3c2)S1
3. Cn1sc(=O)n(Cc2ccccc2)c1=O

1: 95.4; 2: 103; 3: 111

Batch: residual activity for all items listed.
1. CCN(CC)CCCCN1c2ccccc2Oc2ccc(Cl)cc21
2. O=C1Nc2ccccc2/C1=C1\Nc2ccccc2\C1=N/O
3. CN(C)C[C@H]1CCn2c(c(C3=C(c4cn(C)c5ccccc45)C(=O)NC3=O)c3ccccc32)C1

1. 102
2. 101
3. 2.29

Batch: residual activity for all items listed.
1. CC(=O)O/N=C1\C(=C2\C(=O)Nc3cc(Br)ccc32)Nc2ccccc21
2. Cn1nc2c3c(cccc31)C(=O)c1ccccc1-2
3. O=C(Nc1cccc(Nc2cc(Nc3cccc(C(F)(F)F)c3)ncn2)c1)C1CC1
4. Nc1nnc2[nH]c3ccccc3nc1-2
5. O=C1Nc2ccccc2/C1=C1/Nc2ccccc2/C1=N\OCCC(O)CO (stereo not given)

1. 101
2. 97.8
3. 107
4. 88.5
5. 88

---

Biological target: IGF1R (human)
Test: radiometric filter-binding kinase assay, Kinase HotSpot
Settings: compound 0.5 µM; ATP 10 µM
Consider the following compounds; for each one, report its residual activity.
Give bare numbers, in %.

# COMPOUND, OBSERVATION_TYPE, MEASUREMENT_UNITS, REPORTED_RESULT
records = [
    ("Cn1nc2c3c(cccc31)C(=O)c1ccccc1-2", "residual activity", "%", 95.9),
    ("O=C(O)/C=C/c1cc(Br)c(Br)c(Br)c1Br", "residual activity", "%", 96),
    ("Cn1sc(=O)n(Cc2ccccc2)c1=O", "residual activity", "%", 97.1),
]

Batch: residual activity for all items listed.
1. COc1cc2ncc(-c3ccccc3)nc2cc1OC
2. Nc1nnc2[nH]c3ccccc3nc1-2

1. 91.1
2. 97.5

Batch: residual activity for all items listed.
1. CC(=O)O/N=C1\C(=C2\C(=O)Nc3cc(Br)ccc32)Nc2ccccc21
2. CN(C)C[C@H]1CCn2c(c(C3=C(c4cn(C)c5ccccc45)C(=O)NC3=O)c3ccccc32)C1
3. O=C1Cc2c([nH]c3ccc(Br)cc23)-c2ccccc2N1
4. O=C1NC(=O)C(c2c[nH]c3ccccc23)=C1c1c[nH]c2ccccc12
5. O=C1Nc2ccccc2/C1=C1/Nc2ccccc2/C1=N\OCCC(O)CO (configuration not stated)

106
101
103
80
39.1

Batch: residual activity for all items listed.
1. O=C1NC(=O)/C(=C\c2ccc3nccnc3c2)S1
2. Cn1cnc2cc3c(Nc4cccc(Br)c4)ncnc3cc21

92
102

---

Molecular target: UniProtKB Q14012
Sequence (Q14012 whole entry, looked up): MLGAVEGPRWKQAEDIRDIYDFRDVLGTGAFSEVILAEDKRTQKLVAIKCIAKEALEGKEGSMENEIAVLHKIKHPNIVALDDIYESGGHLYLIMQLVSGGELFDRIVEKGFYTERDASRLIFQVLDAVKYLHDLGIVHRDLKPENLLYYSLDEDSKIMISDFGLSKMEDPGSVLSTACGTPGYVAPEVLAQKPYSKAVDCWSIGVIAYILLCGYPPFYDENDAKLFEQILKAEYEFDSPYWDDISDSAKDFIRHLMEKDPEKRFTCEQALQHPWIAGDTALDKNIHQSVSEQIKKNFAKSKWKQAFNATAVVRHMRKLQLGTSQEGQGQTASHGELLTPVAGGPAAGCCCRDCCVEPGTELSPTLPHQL
Assay: radiometric filter-binding kinase assay, Kinase HotSpot
Settings: compound 0.5 µM; ATP 10 µM
OBSERVATION_TYPE: residual activity (%)
Answers are plain numbers, in %.

A selection of reference data follows.
# COMPOUND, REPORTED_RESULT
rows = [
    ("Cc1nc2cc3nc(-c4cccs4)cnc3cc2n1C", 98.1),
    ("Cn1nc2c3c(cccc31)C(=O)c1ccccc1-2", 104),
    ("O=C1NC(=O)C(c2cn(CCCO)c3ncccc23)=C1c1cnccn1", 101),
    ("O=C(Nc1cccc(Nc2cc(Nc3cccc(C(F)(F)F)c3)ncn2)c1)C1CC1", 108),
    ("CCN(CC)CCCCN1c2ccccc2Oc2ccc(Cl)cc21", 101),
    ("CCn1cnc2c(Nc3cccc(Cl)c3)nc(N[C@@H]3CCCC[C@@H]3N)nc21", 103),
    ("CC(C)c1nn(-c2c(Cl)cccc2Cl)c2nc(Cc3ccc(OCCO)cc3)nc(O)c12", 85.1),
    ("Nc1nnc2[nH]c3ccccc3nc1-2", 94.4),
    ("CC(C)[C@H](CO)Nc1nc(Nc2cc(N)cc(Cl)c2)c2ncn(C(C)C)c2n1", 95.3),
    ("Cn1sc(=O)n(Cc2ccccc2)c1=O", 100),
]

Batch: residual activity for all items listed.
1. O=C1NC(=O)C(c2c[nH]c3ccccc23)=C1c1c[nH]c2ccccc12
2. Nc1nccc(-c2c(-c3ccc(F)cc3)ncn2C2CCNCC2)n1
3. COc1cc2ncc(-c3ccccc3)nc2cc1OC
4. O=C1Nc2ccccc2/C1=C1/Nc2ccccc2/C1=N\OCCC(O)CO (configuration not stated)
5. Cn1cnc2cc3c(Nc4cccc(Br)c4)ncnc3cc21
6. O=C1NC(=O)/C(=C\c2ccc3nccnc3c2)S1

[105, 107, 90.4, 76, 106, 95.7]

Batch: residual activity for all items listed.
1. COc1ccc(OC)c2c(=S)c3ccccc3[nH]c12
2. CC(=O)O/N=C1\C(=C2\C(=O)Nc3cc(Br)ccc32)Nc2ccccc21
3. CN([C@@H](Cc1ccc(OS(=O)(=O)c2cccc3cnccc23)cc1)C(=O)N1CCN(c2ccccc2)CC1)S(=O)(=O)c1cccc2cnccc12
4. O=C(O)/C=C/c1cc(Br)c(Br)c(Br)c1Br
5. Oc1ccc(Nc2nc(-c3ccc(Cl)cc3)cs2)cc1

75.2
102
105
105
111

Batch: residual activity for all items listed.
1. COc1ccc(CNC(=O)Nc2ncc([N+](=O)[O-])s2)cc1
2. COc1cc2ncnc(N3CCN(C(=O)Nc4ccc(Oc5ccccc5)cc4)CC3)c2cc1OC
3. O=C(CCCc1ccc(-c2ccccc2F)cc1)Nc1ccc(O)cc1
4. O=C1Cc2c([nH]c3ccc(Br)cc23)-c2ccccc2N1
5. CN(C)C[C@H]1CCn2c(c(C3=C(c4cn(C)c5ccccc45)C(=O)NC3=O)c3ccccc32)C1

1. 101
2. 96.9
3. 101
4. 106
5. 105

# get_value(readout='residual activity', item= O=C1Nc2ccccc2/C1=C1\Nc2ccccc2\C1=N/O ) 83.7

---

Consider the following compounds; for each one, report its residual activity.
Biological target: MYLK (human) (UniProt Q15746)
Sequence (Q15746 whole entry, looked up): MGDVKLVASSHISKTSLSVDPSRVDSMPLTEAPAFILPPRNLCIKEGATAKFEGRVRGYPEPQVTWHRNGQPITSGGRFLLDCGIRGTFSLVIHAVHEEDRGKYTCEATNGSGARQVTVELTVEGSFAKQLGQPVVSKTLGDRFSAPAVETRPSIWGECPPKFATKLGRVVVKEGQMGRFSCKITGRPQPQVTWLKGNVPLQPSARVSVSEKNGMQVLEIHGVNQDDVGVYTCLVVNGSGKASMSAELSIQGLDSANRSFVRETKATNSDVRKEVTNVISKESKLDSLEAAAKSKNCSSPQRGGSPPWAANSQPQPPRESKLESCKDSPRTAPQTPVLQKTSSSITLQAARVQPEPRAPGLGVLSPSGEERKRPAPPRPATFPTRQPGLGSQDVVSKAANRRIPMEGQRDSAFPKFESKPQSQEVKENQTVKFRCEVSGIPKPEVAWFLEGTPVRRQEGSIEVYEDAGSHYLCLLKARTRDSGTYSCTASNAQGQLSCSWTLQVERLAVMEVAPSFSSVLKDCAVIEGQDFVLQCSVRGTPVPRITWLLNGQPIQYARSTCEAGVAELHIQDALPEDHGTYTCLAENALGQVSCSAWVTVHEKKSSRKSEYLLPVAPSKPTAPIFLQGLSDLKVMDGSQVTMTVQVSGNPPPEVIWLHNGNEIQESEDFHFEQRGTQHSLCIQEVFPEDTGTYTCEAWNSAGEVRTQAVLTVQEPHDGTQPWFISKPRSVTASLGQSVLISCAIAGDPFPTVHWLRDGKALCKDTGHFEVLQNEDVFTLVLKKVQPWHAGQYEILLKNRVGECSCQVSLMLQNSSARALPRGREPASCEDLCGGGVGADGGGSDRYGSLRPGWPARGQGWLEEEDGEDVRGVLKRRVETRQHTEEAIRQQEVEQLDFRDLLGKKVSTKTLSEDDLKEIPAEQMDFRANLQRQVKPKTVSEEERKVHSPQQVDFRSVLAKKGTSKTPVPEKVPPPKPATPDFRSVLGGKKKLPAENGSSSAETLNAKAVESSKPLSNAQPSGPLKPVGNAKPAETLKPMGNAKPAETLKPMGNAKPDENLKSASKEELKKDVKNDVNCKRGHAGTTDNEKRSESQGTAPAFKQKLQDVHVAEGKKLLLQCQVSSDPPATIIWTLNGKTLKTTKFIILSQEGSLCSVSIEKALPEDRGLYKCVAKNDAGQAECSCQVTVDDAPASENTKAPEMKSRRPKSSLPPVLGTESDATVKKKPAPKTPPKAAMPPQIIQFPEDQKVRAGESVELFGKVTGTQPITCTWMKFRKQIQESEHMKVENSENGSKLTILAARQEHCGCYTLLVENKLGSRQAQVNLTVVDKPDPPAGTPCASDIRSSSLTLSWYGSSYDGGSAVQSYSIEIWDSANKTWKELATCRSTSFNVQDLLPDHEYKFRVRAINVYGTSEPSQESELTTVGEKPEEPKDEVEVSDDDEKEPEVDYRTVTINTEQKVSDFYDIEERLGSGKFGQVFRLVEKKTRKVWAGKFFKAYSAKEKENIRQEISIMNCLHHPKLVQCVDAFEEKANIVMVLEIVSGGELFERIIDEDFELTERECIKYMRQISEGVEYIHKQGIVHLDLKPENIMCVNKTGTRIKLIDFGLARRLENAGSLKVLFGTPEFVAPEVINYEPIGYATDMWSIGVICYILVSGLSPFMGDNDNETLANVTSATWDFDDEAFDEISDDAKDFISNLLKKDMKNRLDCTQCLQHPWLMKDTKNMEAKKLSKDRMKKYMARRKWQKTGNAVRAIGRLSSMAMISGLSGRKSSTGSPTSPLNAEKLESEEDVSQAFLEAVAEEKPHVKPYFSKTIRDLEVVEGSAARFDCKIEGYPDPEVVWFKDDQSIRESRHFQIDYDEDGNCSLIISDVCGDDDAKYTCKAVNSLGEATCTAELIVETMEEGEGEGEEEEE
Test: radiometric filter-binding kinase assay, Kinase HotSpot
Conditions: compound 0.5 µM; ATP 10 µM
One number for each entry, in %.

# COMPOUND, MEASUREMENT_UNITS, residual activity
rows = [
    ("Oc1ccc(Nc2nc(-c3ccc(Cl)cc3)cs2)cc1", "%", 104),
    ("CCN(CC)CCCCN1c2ccccc2Oc2ccc(Cl)cc21", "%", 97),
    ("O=C1NC(=O)/C(=C\\c2ccc3nccnc3c2)S1", "%", 97.1),
    ("O=C1Nc2ccccc2/C1=C1/Nc2ccccc2/C1=N\\OCCC(O)CO (stereo not drawn)", "%", 32.3),
    ("CC(C)[C@H](CO)Nc1nc(Nc2cc(N)cc(Cl)c2)c2ncn(C(C)C)c2n1", "%", 81.3),
]

Batch: residual activity for all items listed.
1. O=C1Nc2ccccc2/C1=C1\Nc2ccccc2\C1=N/O
2. O=C(O)/C=C/c1cc(Br)c(Br)c(Br)c1Br
3. Nc1nnc2[nH]c3ccccc3nc1-2
4. CCn1cnc2c(Nc3cccc(Cl)c3)nc(N[C@@H]3CCCC[C@@H]3N)nc21
5. COc1ccc(CNC(=O)Nc2ncc([N+](=O)[O-])s2)cc1

[65, 83.3, 93.6, 91, 94.1]
